- System: TK-10 renal
- measurement-notes: NCI tumour cell line growth inhibition, 48 h
Examples of compounds with documented TGI follow.

The cases that follow already have their TGI on record.
COc1ccccc1S(=O)(=O)Nc1ccc2c3c(cc(CCC(=O)NCCCCNc4cccc5c4C(=O)N(C4CCC(=O)NC4=O)C5=O)cc13)C(=O)N2C (stereo not drawn) | > 100 µM
NC(=O)c1ccc(Oc2nccc(-c3c(-c4ccc(F)cc4)ncn3C3CCNCC3)n2)cc1 | > 25 µM

Note: attention shifts to another entry.
Query block: Give the reported value of TGI for this record: O=C(NC(=O)c1c(Cl)nc2sccn12)Nc1ccc(Cl)cc1
Result block: 89.2 µM

Values from PubChem BioAssay (NCI)
